molecular target: P-glycoprotein (P-gp) (Homo sapiens); assay: SPA saturation binding of [3H]-vinblastine to P-gp (KB-V1 cell membranes); parameters: endogenous in cells; host or cells: KB-V1 cells (multidrug-resistant subclone of KB-3-1, HeLa-derived); sucrose-gradient purified plasma membranes; conditions: [3H]-vinblastine 5 to 55 nM, specific binding fitted with Prism; read-out: KD (binding dissociation constant)
Sequence (P08183 whole entry): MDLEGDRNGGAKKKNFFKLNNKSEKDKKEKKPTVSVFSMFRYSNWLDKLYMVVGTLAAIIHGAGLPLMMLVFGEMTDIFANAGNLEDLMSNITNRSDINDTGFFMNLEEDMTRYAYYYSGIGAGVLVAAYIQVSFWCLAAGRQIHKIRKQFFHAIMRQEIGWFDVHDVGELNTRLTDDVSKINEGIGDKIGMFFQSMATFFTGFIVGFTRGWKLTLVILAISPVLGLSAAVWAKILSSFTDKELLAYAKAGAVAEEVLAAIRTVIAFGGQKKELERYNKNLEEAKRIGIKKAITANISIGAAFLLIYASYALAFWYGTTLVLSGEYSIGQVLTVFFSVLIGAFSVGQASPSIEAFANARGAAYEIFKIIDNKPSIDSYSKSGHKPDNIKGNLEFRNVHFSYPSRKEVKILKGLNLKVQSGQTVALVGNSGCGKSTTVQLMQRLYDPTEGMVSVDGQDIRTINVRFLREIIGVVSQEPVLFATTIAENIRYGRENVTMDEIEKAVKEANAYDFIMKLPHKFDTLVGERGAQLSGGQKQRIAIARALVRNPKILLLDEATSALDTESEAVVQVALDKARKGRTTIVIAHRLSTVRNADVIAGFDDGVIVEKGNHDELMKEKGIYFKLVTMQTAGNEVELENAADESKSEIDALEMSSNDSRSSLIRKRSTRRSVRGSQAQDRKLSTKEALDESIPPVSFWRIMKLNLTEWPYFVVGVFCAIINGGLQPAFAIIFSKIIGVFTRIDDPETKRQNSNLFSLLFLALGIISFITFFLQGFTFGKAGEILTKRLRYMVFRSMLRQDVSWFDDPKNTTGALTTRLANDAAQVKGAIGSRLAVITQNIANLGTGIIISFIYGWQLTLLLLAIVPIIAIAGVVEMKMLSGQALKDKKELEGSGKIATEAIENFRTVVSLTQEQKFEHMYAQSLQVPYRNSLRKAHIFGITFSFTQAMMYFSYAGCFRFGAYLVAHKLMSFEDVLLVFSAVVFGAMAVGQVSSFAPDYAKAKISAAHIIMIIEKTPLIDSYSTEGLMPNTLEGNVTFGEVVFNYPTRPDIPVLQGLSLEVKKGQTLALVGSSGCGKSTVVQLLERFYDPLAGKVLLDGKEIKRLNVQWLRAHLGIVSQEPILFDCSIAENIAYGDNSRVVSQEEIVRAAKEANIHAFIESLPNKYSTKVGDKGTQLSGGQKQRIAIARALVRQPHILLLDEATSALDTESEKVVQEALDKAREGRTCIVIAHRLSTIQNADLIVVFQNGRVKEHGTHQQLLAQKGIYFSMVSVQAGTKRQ
pKd: −log10 of the molar value.
reported_endpoint: pKd

molecule	target	reported_endpoint	recorded_number
CC[C@]1(O)C[C@@H]2CN(CCc3c([nH]c4ccccc34)[C@@](C(=O)OC)(c3cc4c(cc3OC)N(C)[C@H]3[C@@](O)(C(=O)OC)[C@H](OC(C)=O)[C@]5(CC)C=CCN6CC[C@]43[C@@H]65)C2)C1 [[^3H]-vinblastine]	P-glycoprotein (P-gp) (Homo sapiens)	pKd	8.40
